Examples of compounds with documented IC50 follow.
# System: MCF-7
# PROCEDURE_DETAILS: Proliferation of MCF-7 breast cancer cells (CCK-8)
# Format: cell-based
# PARTICULARS: Homo sapiens, MCF7; breast cancer cell line MCF-7; read-out: IC50 against MCF-7

| COMPOUND | IC50 |
| --- | --- |
| CCO[C@H]1CC[C@H](n2c([C@@H]3CCOC(=O)N3c3ccc(Cl)c(F)c3)nc3cc(-c4c(C)noc4C)ccc32)CC1 [Compound 172] | < 500 nM |
| CCO[C@H]1CC[C@H](n2c([C@@H]3CCOC(=O)N3c3ccc(F)c(F)c3)nc3cc(-c4c(C)noc4C)ccc32)CC1 [Compound 171] | < 500 nM |

// next entry
Input CO[C@H]1CC[C@H](n2c([C@@H]3CCOC(=O)N3c3ccc(Cl)c(F)c3)nc3cc(-c4c(C)noc4C)ccc32)CC1 [Compound 117] , output reported IC50.
< 500 nM

====

# MEASURED_ON: CBP BRD (Homo sapiens (Human))
# Sequence (Q92793 1085-1192): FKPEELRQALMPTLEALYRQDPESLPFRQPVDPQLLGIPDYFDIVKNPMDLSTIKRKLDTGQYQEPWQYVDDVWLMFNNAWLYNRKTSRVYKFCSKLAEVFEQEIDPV
# PROCEDURE_DETAILS: CBP AlphaScreen bromodomain (BRD) binding test
Examples of compounds with documented pIC50 follow.
Schema: pIC50 number; meaning minus log10 of the concentration expressed in molar units.

# example entries with known answers
| QUERY_SMILES | pIC50 |
| --- | --- |
| COc1cccc(-c2nc3cc(-c4c(C)noc4C)ccc3n2[C@H]2CC[C@H](OC)CC2)c1-c1ccc(F)cc1 | 7.66 |
| CCO[C@H]1CC[C@H](n2c([C@@H]3CCOC(=O)N3c3ccc(Cl)c(F)c3)nc3cc(-c4c(C)noc4C)ccc32)CC1 | 8.64 |
| CO[C@H]1C[C@@H](n2c([C@@H]3CCOC(=O)N3c3ccc(F)c(F)c3)nc3cc(-c4c(C)noc4C)ccc32)C1 | 8.33 |
| CO[C@H]1CC[C@H](n2c([C@H]3COCC(=O)N3c3ccc(F)c(F)c3)nc3cc(-c4c(C)noc4C)ccc32)CC1 | 8.70 |
| CO[C@H]1CC[C@H](n2c([C@@H]3CCOC(=O)N3c3ccc(Cl)c(F)c3)nc3cc(-c4c(C)noc4C)ccc32)CC1 | 9.15 |
| CCO[C@H]1CC[C@H](n2c([C@@H]3CCOC(=O)N3c3ccc(F)c(F)c3)nc3cc(-c4c(C)noc4C)ccc32)CC1 | 8.74 |

Input CO[C@H]1CC[C@H](n2c([C@@H]3CCOCC(=O)N3c3ccc(F)c(F)c3)nc3cc(-c4c(C)noc4C)ccc32)CC1 , output reported pIC50.
8.32

====

# System: MCF-7 cells
# PROCEDURE_DETAILS: Combination with CDK4/6 inhibitor palbociclib, proliferation of MCF-7 breast cancer cells
# Type: cell-based
# PARTICULARS: Homo sapiens, MCF7, 172 in combination with 10 nM palbociclib; read-out: IC50 against MCF-7 cells
READOUT_TYPE: pIC50
Schema: pIC50 number; meaning minus log10 of the concentration expressed in molar units.

Input CCO[C@H]1CC[C@H](n2c([C@@H]3CCOC(=O)N3c3ccc(Cl)c(F)c3)nc3cc(-c4c(C)noc4C)ccc32)CC1 , output reported pIC50.
7.57

====

# Test system: CWR22RV1 cells
# PROCEDURE_DETAILS: Combination with CDK4/6 inhibitor palbociclib, proliferation of CWR22RV1 prostate cancer cells
# Format: cell-based
# PARTICULARS: CWR22Rv1, 172 in combination with 10 nM palbociclib; read-out: IC50 against CWR22RV1 cells
READOUT_TYPE: IC50 (µM)
Report the value in µM with no unit label.

Look up and report IC50, with CWR22RV1 cells as system, for CCO[C@H]1CC[C@H](n2c([C@@H]3CCOC(=O)N3c3ccc(Cl)c(F)c3)nc3cc(-c4c(C)noc4C)ccc32)CC1
0.026
